# System Under Test: T1, recombinant biotinylated human CD71 extracellular domain (human, UniProt P02786 89-760, biotinylated)
# T1 construct: extracellular domain; also called hCD71; huCD71 ECD
# T1 sequence (P02786 other isoform, or with tags, fused parts or gaps): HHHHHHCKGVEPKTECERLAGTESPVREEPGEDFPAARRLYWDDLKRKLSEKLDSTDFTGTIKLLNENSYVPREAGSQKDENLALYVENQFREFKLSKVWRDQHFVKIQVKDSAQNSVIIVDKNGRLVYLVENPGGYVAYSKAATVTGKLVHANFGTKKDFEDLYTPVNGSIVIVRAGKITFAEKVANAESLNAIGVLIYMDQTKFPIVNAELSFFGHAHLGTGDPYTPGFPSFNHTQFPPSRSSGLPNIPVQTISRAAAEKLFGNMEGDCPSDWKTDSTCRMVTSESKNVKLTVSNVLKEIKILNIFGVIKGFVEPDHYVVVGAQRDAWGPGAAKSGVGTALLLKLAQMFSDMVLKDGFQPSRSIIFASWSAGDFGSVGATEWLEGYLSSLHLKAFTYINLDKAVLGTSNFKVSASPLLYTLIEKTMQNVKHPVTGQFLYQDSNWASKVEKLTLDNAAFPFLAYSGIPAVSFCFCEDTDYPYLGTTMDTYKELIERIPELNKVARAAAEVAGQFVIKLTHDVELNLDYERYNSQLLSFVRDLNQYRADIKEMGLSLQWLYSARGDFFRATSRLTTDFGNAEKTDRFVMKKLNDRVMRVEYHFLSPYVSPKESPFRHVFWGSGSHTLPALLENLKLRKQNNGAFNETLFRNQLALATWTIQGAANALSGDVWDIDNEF
# Protocol: solution ELISA, signal ratio to HSA
Property: hCD71:HSA

binder="SEQ ID NO 202 (designed binder, FN3 domain) MLPAPKNLVVSRVTEDSARLSWTAPDAAFDSFDIGYTEYGGYGEAILHVPGSERSYDLTGLKPGTEYWVLIQGVKGGGSSVPLSAIFTT" numeric_result=58.6

A = SEQ ID NO 167 (designed binder, FN3 domain) MLPAPKNLVVSRVTEDSARLSWTAPDAAFDSFFIGYLEPQPPGEAIILGVPGSERSYDLTGLKPGTEYSVLIHGVKGGLLSSPLHAYSTT
B = SEQ ID NO 182 (designed binder, FN3 domain) MLPAPKNLVVSRVTEDSARLSWTAPDAAFDSFYIAYAEPRPDGEAIDLHVPGSERSYDLTGLKPGTEYSVLIHGVKGGLLSSPLHALFTT
## Task Which value of hCD71:HSA is greater, the one for A or the one for B ? Kindly state the label of the option you pick.
## Result A
(A: 23.2, B: 14.5)

P = SEQ ID NO 149 (designed binder, FN3 domain) MLPAPKNLVVSRVTEDSARLSWTAPDAAFDSFYIAYAEPRPDGEAIQLWVPGSERSYDLTGLKPGTEYSVLIHGVKGGLLSSPLSAIFTT
Q = SEQ ID NO 113 (designed binder, FN3 domain) MLPAPKNLVVSRVTEDSARLSWTAPDAAFDSFYIAYAEPRPDGEAINLQVPGSERSYDLTGLKPGTEYSVLIHGVKGGLLSSPLVAFFTT
## Task Which value of hCD71:HSA is greater, the one for P or the one for Q ? Kindly state the label of the option you pick.
## Result P
(P: 91.2, Q: 42.6)
